A set of compounds tested on human chemokine receptor CCR3 (Homo sapiens (Human)), with measured log10 Ki:
measurementType: log10 Ki (log10 of the value in nM)

1) Cc1cc(C(=O)N(C)C)cc(NC(=O)[C@H]2CCC(=O)N2C2CCN(Cc3ccc(Cl)c(Cl)c3)CC2)n1: 1.25
2) Cc1cc(CN2CCC(N3C(=O)CC[C@@H]3C(=O)Nc3cc(C(=O)N4CCCC4)ccn3)CC2)ccc1Cl: 0.67
3) Cc1cc(C(=O)N(C)C)cc(NC(=O)[C@H]2CCC(=O)N2C2CCN(Cc3ccc(Cl)c(C(F)(F)F)c3)CC2)n1: 1.94
4) Cc1ccnc(NC(=O)[C@H]2CCC(=O)N2C2CCN(Cc3ccc(Cl)c(C)c3)CC2)c1: 1.83
5) Cc1cc(CN2CCC(N3C(=O)CC[C@@H]3C(=O)Nc3cc(C(=O)N(C)C)ccn3)CC2)ccc1Cl: 0.93
6) CCc1ccnc(NC(=O)[C@H]2CCC(=O)N2C2CCN(Cc3ccc(Cl)c(C)c3)CC2)c1: 2.29
7) CCC(C)NC(=O)c1cc(C)nc(NC(=O)[C@H]2CCC(=O)N2C2CCN(Cc3ccc(Cl)c(C)c3)CC2)c1 (stereo partly shown): 0.60
8) Cc1cc(C(=O)N(C)C)cc(NC(=O)[C@H]2CCC(=O)N2C2CCN(Cc3cc(C)c(Cl)c(C)c3)CC2)n1: 1.79
9) CNC(=O)c1ccnc(NC(=O)[C@H]2CCC(=O)N2C2CCN(Cc3ccc(Cl)c(C)c3)CC2)c1: 1.37
10) Cc1cc(CN2CCC(N3C(=O)CC[C@@H]3C(=O)Nc3cc(C(=O)N(C)C)cc(C4CC4)n3)CC2)ccc1Cl: 0.36
11) Cc1cc(C(=O)NCC(C)C)cc(NC(=O)[C@H]2CCC(=O)N2C2CCN(Cc3ccc(Cl)c(C)c3)CC2)n1: 0.63
12) Cc1cc(C(=O)N(C)C)cc(NC(=O)[C@H]2CCC(=O)N2C2CCN(Cc3ccc(Cl)c(C)c3)CC2)n1: 0.51
13) COc1ccnc(NC(=O)[C@H]2CCC(=O)N2C2CCN(Cc3ccc(Cl)c(C)c3)CC2)c1: 1.67
14) Cc1cc(C(=O)NCC(F)F)cc(NC(=O)[C@H]2CCC(=O)N2C2CCN(Cc3ccc(Cl)c(C)c3)CC2)n1: 0.66
15) CCc1cc(CN2CCC(N3C(=O)CC[C@@H]3C(=O)Nc3cc(C(=O)N(C)C)cc(C)n3)CC2)ccc1Cl: 0.90
16) Cc1cccc(NC(=O)[C@H]2CCC(=O)N2C2CCN(Cc3ccc(Cl)c(C)c3)CC2)n1: 1.84

This collection of values is drawn from patent US8742115B2.
